Each entry below carries its recorded Remaining activity [%].
# Target of assay: VLP2 (virus-like particles, capsid protein particles of AAV serotype 2) (AAV serotype 2 (AAV2)) (UniProt P03135)
# Sequence (P03135 whole entry): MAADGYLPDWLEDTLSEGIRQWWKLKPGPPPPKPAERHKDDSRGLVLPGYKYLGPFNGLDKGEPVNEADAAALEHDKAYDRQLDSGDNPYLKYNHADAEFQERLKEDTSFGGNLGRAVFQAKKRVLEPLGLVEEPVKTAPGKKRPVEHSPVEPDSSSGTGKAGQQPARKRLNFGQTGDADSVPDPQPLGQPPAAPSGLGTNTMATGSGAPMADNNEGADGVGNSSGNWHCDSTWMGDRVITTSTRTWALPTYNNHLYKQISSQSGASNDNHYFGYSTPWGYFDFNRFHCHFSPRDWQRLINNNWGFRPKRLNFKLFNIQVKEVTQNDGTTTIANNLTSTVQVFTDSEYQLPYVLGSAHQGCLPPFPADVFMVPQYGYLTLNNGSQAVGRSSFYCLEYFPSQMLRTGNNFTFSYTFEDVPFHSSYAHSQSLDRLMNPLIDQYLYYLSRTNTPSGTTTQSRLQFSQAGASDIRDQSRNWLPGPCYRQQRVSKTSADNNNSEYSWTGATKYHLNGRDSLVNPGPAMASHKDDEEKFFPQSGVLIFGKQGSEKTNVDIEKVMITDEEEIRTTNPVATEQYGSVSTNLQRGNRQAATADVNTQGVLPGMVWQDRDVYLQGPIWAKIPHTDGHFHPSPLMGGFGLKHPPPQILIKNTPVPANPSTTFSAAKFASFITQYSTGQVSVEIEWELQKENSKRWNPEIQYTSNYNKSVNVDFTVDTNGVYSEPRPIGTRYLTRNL
# Assay remarks: ELISA on immobilised VLP2 (purified protein); A450 after 1:1 0.5 M NaOH, 30°C, 30 min divided by A450 at 0 time
// return numeric value only (unit: %, not printed)

Study these solved cases before continuing.
AVR25b (AVR21 with K338R, E401G, T426A, A461P) (receptor) MGSAGESDQITLPKHEAQLNVYVLLVPPRGEASTYDWQLITHPRDYSGEMEGEHSQILKLSNLTPGLYEYRAVVEGQNAHSEGYVNVTVEPGPRKNRPPIAIVSPQFQEISLPTTSAVIDGSQSTDDDKIVQYHWEELKGPLREEKISEDTPILKLSQLVPGNYTFRLTVVDTDGATDSTTADLTVNKAVDHHHHHH | 100
AVR25a (AVR21 with N329K, E401G, T426A, A461P) (receptor) MGSAGESDQITLPKHEAQLKVYVLLVPPKGEASTYDWQLITHPRDYSGEMEGEHSQILKLSNLTPGLYEYRAVVEGQNAHSEGYVNVTVEPGPRKNRPPIAIVSPQFQEISLPTTSAVIDGSQSTDDDKIVQYHWEELKGPLREEKISEDTPILKLSQLVPGNYTFRLTVVDTDGATDSTTADLTVNKAVDHHHHHH | 100

Indicate its recorded Remaining activity [%]; the binder in question is AVR24a (AVR21 with N329K, E401G, T426A) (receptor) MGSAGESDQITLPKHEAQLKVYVLLVPPKGEASTYDWQLITHPRDYSGEMEGEHSQILKLSNLTPGLYEYRAVVEGQNAHSEGYVNVTVEPGPRKNRPPIAIVSPQFQEISLPTTSAVIDGSQSTDDDKIVQYHWEELKGPLREEKISEDTAILKLSQLVPGNYTFRLTVVDTDGATDSTTADLTVNKAVDHHHHHH 37.6
